MEASURED TARGET: hCox-2 (Homo sapiens, UniProt P35354)
Construct: A 2.0 kb fragment containing the coding region of either human or murine COX-1 or human or murine COX-2
Sequence (P35354 18-604): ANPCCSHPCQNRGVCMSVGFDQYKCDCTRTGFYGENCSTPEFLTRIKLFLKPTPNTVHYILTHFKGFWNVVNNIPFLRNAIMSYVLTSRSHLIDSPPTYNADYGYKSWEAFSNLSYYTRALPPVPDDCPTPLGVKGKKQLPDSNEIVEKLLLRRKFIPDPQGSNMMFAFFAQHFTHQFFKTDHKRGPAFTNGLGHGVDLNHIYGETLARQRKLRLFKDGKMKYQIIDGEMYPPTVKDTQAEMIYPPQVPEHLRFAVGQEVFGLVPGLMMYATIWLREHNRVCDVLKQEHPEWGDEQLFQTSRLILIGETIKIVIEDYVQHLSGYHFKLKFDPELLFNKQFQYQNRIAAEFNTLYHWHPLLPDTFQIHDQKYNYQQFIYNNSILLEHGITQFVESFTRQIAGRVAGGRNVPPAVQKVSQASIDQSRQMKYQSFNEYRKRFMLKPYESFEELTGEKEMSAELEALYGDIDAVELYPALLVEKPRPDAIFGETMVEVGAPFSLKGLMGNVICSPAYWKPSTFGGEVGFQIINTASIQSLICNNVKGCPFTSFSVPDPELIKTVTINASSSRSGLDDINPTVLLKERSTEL
PROTOCOL NOTES: Evaluation of COX-2 activity in vitro (recombinant enzyme, PGE2 ELISA)
pIC50: −log10 of the molar value.
Exercise: for every item that follows, state its recorded pIC50.

QUERY: Item under review: Cc1ccc(-c2cc(C(F)(F)F)nn2-c2ccc(C(F)(F)F)cc2)cc1 [Compound 30] . Reported pIC50?
RESULT: < 4.00

QUERY: Item COC(=O)c1nn(-c2ccc(OC)cc2)c2c1CCc1cc(OC)ccc1-2 [Compound 18] has what recorded pIC50?
RESULT: < 4.00

QUERY: // pIC50 lookup, key: Cc1ccc(-c2cc(C(F)(F)F)nn2-c2ccc(Br)cc2)cc1 [Compound 16]
RESULT: 6.37

QUERY: Query: pIC50; subject: COc1ccc(-c2cc(C(F)F)nn2-c2ccc(Cl)cc2)cc1F [Compound 28]
RESULT: 4.64

QUERY: State the recorded pIC50 for this entry: FC(F)(F)c1cc(-c2ccc(Br)cc2)n(-c2ccccc2)n1 [Compound 12]
RESULT: < 3.30

QUERY: May I ask what pIC50 has been recorded for O=[N+]([O-])c1ccc(-n2nc(C(F)F)cc2-c2ccc(Cl)cc2)cc1 [Compound 23] ?
RESULT: < 4.00

QUERY: // query pIC50 value for entry COc1ccc(-n2nc(CCC(=O)N(C)O)cc2-c2ccc(Cl)cc2)cc1 [Compound 20]
RESULT: < 3.00

QUERY: Look at this molecule and give its reported pIC50. COc1ccc2c(c1)CSc1c(C(F)(F)F)nn(-c3ccc(Cl)cc3)c1-2 [Compound 27]
RESULT: < 4.00

QUERY: # input molecule: COc1ccc(-n2nc(C(F)F)cc2-c2ccc(Cl)cc2)cc1 [Compound 2] ; wanted: its pIC50
RESULT: < 4.00
